Molecular target: HSA (Homo sapiens)
Construct: HSA (≥96%) and six PFAS were all purchased from Aladdin Chemicals (Shanghai, China); purchased Aladdin Chemicals (Shanghai, China)
Sequence (P02768 25-609): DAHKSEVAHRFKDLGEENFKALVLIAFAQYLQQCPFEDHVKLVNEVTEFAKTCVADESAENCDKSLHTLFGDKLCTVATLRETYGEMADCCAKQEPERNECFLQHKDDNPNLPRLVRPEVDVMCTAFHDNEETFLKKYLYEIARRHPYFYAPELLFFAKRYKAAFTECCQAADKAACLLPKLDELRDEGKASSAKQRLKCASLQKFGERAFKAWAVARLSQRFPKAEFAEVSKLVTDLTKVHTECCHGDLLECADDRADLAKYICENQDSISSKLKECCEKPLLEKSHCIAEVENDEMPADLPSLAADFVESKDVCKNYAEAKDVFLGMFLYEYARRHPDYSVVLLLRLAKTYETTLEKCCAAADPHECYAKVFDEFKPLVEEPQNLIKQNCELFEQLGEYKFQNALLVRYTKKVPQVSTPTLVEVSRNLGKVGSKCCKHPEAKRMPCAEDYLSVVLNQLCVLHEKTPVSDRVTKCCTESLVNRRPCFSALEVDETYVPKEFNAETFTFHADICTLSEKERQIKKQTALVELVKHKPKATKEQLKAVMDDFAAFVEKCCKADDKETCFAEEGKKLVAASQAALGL
Assay: Circular dichroism (CD) spectrum, secondary structure of HSA
Settings: HSA:PFAS 1:18, 298 K; HSA alone 41.6
readout-kind: HSA secondary structure: α-Helix (%)
# number only, unit % dropped from output

{"molecule": "O=C(O)C(F)(F)C(F)(F)C(F)(F)C(F)(F)C(F)(F)C(F)(F)C(=O)O [DFSA, Dodecafluorosuberic Acid]", "readout-kind": "HSA secondary structure: α-Helix", "value-observed": 43.2}
{"molecule": "O=C(O)C(F)(F)C(F)(F)C(F)(F)C(F)(F)C(F)(F)C(F)(F)F [PFHpA, Perfluoroheptanoic Acid]", "readout-kind": "HSA secondary structure: α-Helix", "value-observed": 39.6}
{"molecule": "O=C(O)C(F)(F)C(F)(F)C(F)(F)C(F)(F)C(F)(F)C(F)(F)C(F)(F)C(F)(F)F [PFNA, Perfluorononanoic Acid]", "readout-kind": "HSA secondary structure: α-Helix", "value-observed": 36.2}

Look up HSA secondary structure: α-Helix of O=C(O)C(F)(F)OC(F)(F)C(F)(F)OC(F)(F)C(F)(F)OC(F)(F)F [PFO3DA, Perfluoro-3,6,9-trioxadecanoic Acid] and report it.
36.4

Look up HSA secondary structure: α-Helix of O=C(O)C(F)(F)C(F)(F)C(F)(F)C(F)(F)C(F)(F)C(F)(F)C(F)(F)F [PFOA, Perfluorooctanoic Acid] and report it.
37.2

Look up HSA secondary structure: α-Helix of O=C(O)C(F)(OC(F)(F)C(F)(OC(F)(F)C(F)(F)C(F)(F)F)C(F)(F)F)C(F)(F)F (stereo not drawn) [HFPO-TA] and report it.
40.6

====

Biological target: Human Serum Albumin (HSA) (Homo sapiens, UniProt P02768)
Construct: HSA (≥96%) and six PFAS were all purchased from Aladdin Chemicals (Shanghai, China); purchased Aladdin Chemicals (Shanghai, China)
Sequence (P02768 25-609): as above
Test: Fluorescence quenching of HSA by PFAS (Stern–Volmer, double logarithmic and Van't Hoff analysis)
Assay type: binding
Conditions: PFAS 1.8 × 10^−5 mol·L^−1, HSA 1 × 10^−6 mol·L^−1, 298 K
Just a reminder that ties go to n: only quenching of HSA fluorescence intensity strictly below 20% counts as y.

# count of solved cases: 4
{"molecule": "O=C(O)C(F)(OC(F)(F)C(F)(OC(F)(F)C(F)(F)C(F)(F)F)C(F)(F)F)C(F)(F)F (stereo not drawn)", "category-label": "n"}
{"molecule": "O=C(O)C(F)(F)C(F)(F)C(F)(F)C(F)(F)C(F)(F)C(F)(F)C(F)(F)C(F)(F)F", "category-label": "n"}
{"molecule": "O=C(O)C(F)(F)C(F)(F)C(F)(F)C(F)(F)C(F)(F)C(F)(F)F", "category-label": "y"}
{"molecule": "O=C(O)C(F)(F)OC(F)(F)C(F)(F)OC(F)(F)C(F)(F)OC(F)(F)F", "category-label": "y"}

Lab log: compare recorded quenching of HSA fluorescence intensity with 20%; is it strictly lower for `O=C(O)C(F)(F)C(F)(F)C(F)(F)C(F)(F)C(F)(F)C(F)(F)C(=O)O` ?
y

====

Target: Human Serum Albumin (HSA) (Homo sapiens, UniProt P02768)
Construct: HSA (≥96%) and six PFAS were all purchased from Aladdin Chemicals (Shanghai, China); purchased Aladdin Chemicals (Shanghai, China)
Experiment: Fluorescence quenching of HSA by PFAS (Stern–Volmer, double logarithmic and Van't Hoff analysis)
Type: binding
Details: T = 298 K
Below, each of the molecules is paired with its reported n (number of binding sites) value.
Please respond with just the number, no unit label.

Record excerpt, results attached:
{"molecule": "O=C(O)C(F)(F)OC(F)(F)C(F)(F)OC(F)(F)C(F)(F)OC(F)(F)F [PFO3DA, Perfluoro-3,6,9-trioxadecanoic Acid]", "n (number of binding sites)": 1.25}
{"molecule": "O=C(O)C(F)(OC(F)(F)C(F)(OC(F)(F)C(F)(F)C(F)(F)F)C(F)(F)F)C(F)(F)F (stereo not drawn) [HFPO-TA]", "n (number of binding sites)": 1.49}
{"molecule": "O=C(O)C(F)(F)C(F)(F)C(F)(F)C(F)(F)C(F)(F)C(F)(F)C(F)(F)F [PFOA, Perfluorooctanoic Acid]", "n (number of binding sites)": 1.26}

Specify the recorded n (number of binding sites) for O=C(O)C(F)(F)C(F)(F)C(F)(F)C(F)(F)C(F)(F)C(F)(F)F [PFHpA, Perfluoroheptanoic Acid] , system: Human Serum Albumin (HSA) (Homo sapiens, UniProt P02768).
0.96

Specify the recorded n (number of binding sites) for O=C(O)C(F)(F)C(F)(F)C(F)(F)C(F)(F)C(F)(F)C(F)(F)C(=O)O [DFSA, Dodecafluorosuberic Acid] , system: Human Serum Albumin (HSA) (Homo sapiens, UniProt P02768).
0.88

Specify the recorded n (number of binding sites) for O=C(O)C(F)(F)C(F)(F)C(F)(F)C(F)(F)C(F)(F)C(F)(F)C(F)(F)C(F)(F)F [PFNA, Perfluorononanoic Acid] , system: Human Serum Albumin (HSA) (Homo sapiens, UniProt P02768).
1.51

====

Molecular target: HSA (Homo sapiens)
Construct: HSA (≥96%) and six PFAS were all purchased from Aladdin Chemicals (Shanghai, China); purchased Aladdin Chemicals (Shanghai, China)
Assay: Competitive probe experiment (warfarin, ibuprofen, lidocaine)
Assay type: binding
Conditions: lidocaine probe
Below, each of the compounds is paired with its reported φ (rate of decrease in Kb) value.
# number only, unit % dropped from output

Record excerpt, results attached:
{"compound": "O=C(O)C(F)(F)OC(F)(F)C(F)(F)OC(F)(F)C(F)(F)OC(F)(F)F [PFO3DA, Perfluoro-3,6,9-trioxadecanoic Acid]", "φ (rate of decrease in Kb), %": 11.8}
{"compound": "O=C(O)C(F)(F)C(F)(F)C(F)(F)C(F)(F)C(F)(F)C(F)(F)C(F)(F)C(F)(F)F [PFNA, Perfluorononanoic Acid]", "φ (rate of decrease in Kb), %": 43.9}
{"compound": "O=C(O)C(F)(F)C(F)(F)C(F)(F)C(F)(F)C(F)(F)C(F)(F)F [PFHpA, Perfluoroheptanoic Acid]", "φ (rate of decrease in Kb), %": 48.8}

Look up φ (rate of decrease in Kb) of O=C(O)C(F)(F)C(F)(F)C(F)(F)C(F)(F)C(F)(F)C(F)(F)C(F)(F)F [PFOA, Perfluorooctanoic Acid] and report it.
8.1

Look up φ (rate of decrease in Kb) of O=C(O)C(F)(OC(F)(F)C(F)(OC(F)(F)C(F)(F)C(F)(F)F)C(F)(F)F)C(F)(F)F (stereo not drawn) [HFPO-TA] and report it.
35.3

Look up φ (rate of decrease in Kb) of O=C(O)C(F)(F)C(F)(F)C(F)(F)C(F)(F)C(F)(F)C(F)(F)C(=O)O [DFSA, Dodecafluorosuberic Acid] and report it.
31.7

====

Target: Human Serum Albumin (HSA) (Homo sapiens, UniProt P02768)
Construct: HSA (≥96%) and six PFAS were all purchased from Aladdin Chemicals (Shanghai, China); purchased Aladdin Chemicals (Shanghai, China)
Experiment: Fluorescence quenching of HSA by PFAS (Stern–Volmer, double logarithmic and Van't Hoff analysis)
Format: binding
Conditions: T = 304 K
Below, each of the molecules is paired with its reported ΔG value.
# number only, unit kcal/mol dropped from output

{"molecule": "O=C(O)C(F)(F)C(F)(F)C(F)(F)C(F)(F)C(F)(F)C(F)(F)C(=O)O [DFSA, Dodecafluorosuberic Acid]", "unit-descriptor": "kcal/mol", "ΔG": -5.136}
{"molecule": "O=C(O)C(F)(F)OC(F)(F)C(F)(F)OC(F)(F)C(F)(F)OC(F)(F)F [PFO3DA, Perfluoro-3,6,9-trioxadecanoic Acid]", "unit-descriptor": "kcal/mol", "ΔG": -6.479}
{"molecule": "O=C(O)C(F)(F)C(F)(F)C(F)(F)C(F)(F)C(F)(F)C(F)(F)F [PFHpA, Perfluoroheptanoic Acid]", "unit-descriptor": "kcal/mol", "ΔG": -7.968}
{"molecule": "O=C(O)C(F)(F)C(F)(F)C(F)(F)C(F)(F)C(F)(F)C(F)(F)C(F)(F)F [PFOA, Perfluorooctanoic Acid]", "unit-descriptor": "kcal/mol", "ΔG": -7.851}
{"molecule": "O=C(O)C(F)(F)C(F)(F)C(F)(F)C(F)(F)C(F)(F)C(F)(F)C(F)(F)C(F)(F)F [PFNA, Perfluorononanoic Acid]", "unit-descriptor": "kcal/mol", "ΔG": -7.376}

Specify the recorded ΔG for O=C(O)C(F)(OC(F)(F)C(F)(OC(F)(F)C(F)(F)C(F)(F)F)C(F)(F)F)C(F)(F)F (stereo not drawn) [HFPO-TA] , system: Human Serum Albumin (HSA) (Homo sapiens, UniProt P02768).
-11.03

Values compiled from paper PMC10819430.
